// provenance: patent US20130225506A1

MEASUREMENT_TARGET: chemokine receptor CXCR7 (UniProt P25106 1-362, limits assumed)
Sequence (P25106 whole entry): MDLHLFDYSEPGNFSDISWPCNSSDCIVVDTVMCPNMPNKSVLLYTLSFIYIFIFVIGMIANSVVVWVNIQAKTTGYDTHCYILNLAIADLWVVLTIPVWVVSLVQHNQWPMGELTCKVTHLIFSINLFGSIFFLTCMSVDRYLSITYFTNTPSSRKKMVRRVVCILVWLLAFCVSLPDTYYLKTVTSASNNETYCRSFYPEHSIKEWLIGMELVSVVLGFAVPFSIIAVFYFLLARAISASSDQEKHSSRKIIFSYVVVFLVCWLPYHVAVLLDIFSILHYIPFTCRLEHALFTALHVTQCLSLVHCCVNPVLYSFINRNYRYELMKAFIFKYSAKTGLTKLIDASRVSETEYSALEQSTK
ASSAY_PROCEDURE: cell-based or functional assay
Square brackets hold non-standard residues; d marks the D form. dPro(cis-4-NH2) = N[C@H]1CN[C@@H](C(=O)O)C1; Tic = O=C(O)[C@@H]1Cc2ccccc2CN1; d3Pal = N[C@H](Cc1cccnc1)C(=O)O
REPORTED_PROPERTY: β-Arrestin EC50 (nM)
Just the number please, in nM, no unit attached.

For reference, reported β-Arrestin EC50 for cyclo(W[dF]WK[dPro(cis-4-NH2)][Tic]) (SMILES NCCCC[C@@H]1NC(=O)[C@H](Cc2c[nH]c3ccccc23)NC(=O)[C@@H](Cc2ccccc2)NC(=O)[C@H](Cc2c[nH]c3ccccc23)NC(=O)[C@@H]2Cc3ccccc3CN2C(=O)[C@H]2C[C@@H](N)CN2C1=O) [cyclo(-Trp-^DPhe-Trp-Lys-^DPro((4R)NH2)-Tic-)] stands at 138

For reference, reported β-Arrestin EC50 for cyclo(W[d3Pal]WR[dPro(cis-4-NH2)][Tic]) (SMILES N=C(N)NCCC[C@@H]1NC(=O)[C@H](Cc2c[nH]c3ccccc23)NC(=O)[C@@H](Cc2cccnc2)NC(=O)[C@H](Cc2c[nH]c3ccccc23)NC(=O)[C@@H]2Cc3ccccc3CN2C(=O)[C@H]2C[C@@H](N)CN2C1=O) [cyclo(-Trp-^D3Pal-Trp-Arg-^DPro((4R)NH2)-Tic-)] stands at 6.1
